These measurements were taken from the kinase profiling compilation of Christmann-Franck et al. (2016).

- Test system: MAPK1 (mouse)
- method.notes: radiometric filter-binding kinase assay
- measurement.setup: compound 10.0 µM; ATP 100 µM; accession and sequence are those of the human protein
Note to self: use class 1 only for residual activity readings below 80%; a reading exactly at 80% still gets class 0.

Below are worked cases with known answers.
CC(C)[C@H](CO)Nc1nc(Nc2cccc(Cl)c2)c2ncn(C(C)C)c2n1    class 1
O=C1Cc2c([nH]c3ccc(Br)cc23)-c2ccccc2N1    class 1
CN(C)S(=O)(=O)c1ccc2c(c1)/C(=C/c1cc3c([nH]1)CCCC3)C(=O)N2    class 0

Query: Lab log: compare recorded residual activity with 80%; is it strictly lower for O=C1Nc2ccccc2/C1=C1\Nc2ccccc2\C1=N/O ?
Reply: class 0

====

residual activity values for the compounds below.
- assayed.system: CDK2 CCNA2 (human) (UniProt P24941+P20248)
- Sequence (P20248 whole entry, looked up, other chains not shown): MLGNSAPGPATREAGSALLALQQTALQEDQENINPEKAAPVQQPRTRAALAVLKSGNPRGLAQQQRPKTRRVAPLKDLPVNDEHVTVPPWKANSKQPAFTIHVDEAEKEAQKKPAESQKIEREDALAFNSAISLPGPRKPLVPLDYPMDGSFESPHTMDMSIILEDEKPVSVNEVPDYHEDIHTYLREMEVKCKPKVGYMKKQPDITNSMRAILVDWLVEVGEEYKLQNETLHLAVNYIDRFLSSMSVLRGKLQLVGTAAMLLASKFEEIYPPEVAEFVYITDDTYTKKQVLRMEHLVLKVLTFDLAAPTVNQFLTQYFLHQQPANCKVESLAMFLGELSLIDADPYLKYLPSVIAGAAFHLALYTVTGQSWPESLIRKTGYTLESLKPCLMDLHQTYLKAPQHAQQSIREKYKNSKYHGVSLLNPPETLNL
- method.notes: radiometric filter-binding kinase assay
- measurement.setup: compound 10.0 µM; ATP 100 µM
The reply must contain the numeric value and, after it, the unit.

Take a look at these entries with their results.
O=C1Cc2c([nH]c3ccc([N+](=O)[O-])cc23)-c2ccccc2N1    5%
O=C1Nc2ccccc2/C1=C1\Nc2ccccc2\C1=N/O    18%
COC(=O)[C@@]1(OC)C[C@@H]2O[C@]1(C)n1c3ccccc3c3c4c(c5c6ccccc6n2c5c31)C(=O)N(C)C4    94%
CC(C)(C)n1nc(-c2ccc(Cl)cc2)c2c(N)ncnc21    68%
O=C1Cc2c([nH]c3ccc(Br)cc23)-c2ccccc2N1    22%
CN(C)S(=O)(=O)c1ccc2c(c1)/C(=C/c1cc3c([nH]1)CCCC3)C(=O)N2    54%

Query: Recorded residual activity of CC(C)[C@H](CO)Nc1nc(Nc2cccc(Cl)c2)c2ncn(C(C)C)c2n1 , please.
Reply: 2%

Query: Recorded residual activity of O=C(O[C@@H]1Cc2c(O)cc(O)cc2O[C@@H]1c1cc(O)c(O)c(O)c1)c1cc(O)c(O)c(O)c1 , please.
Reply: 97%

Query: Recorded residual activity of O=C1c2ccccc2-c2n[nH]c3cccc1c23 , please.
Reply: 20%

Query: Recorded residual activity of Nc1ncnc2c1cnn2-c1ccccc1 , please.
Reply: 84%

Query: Recorded residual activity of Cc1ccc(-c2nn(C(C)(C)C)c3ncnc(N)c23)cc1 , please.
Reply: 75%

====

- Tested on: CSNK1A1 (rat)
- method.notes: radiometric filter-binding kinase assay
- measurement.setup: compound 10.0 µM; ATP 100 µM; accession and sequence are those of the human protein
Note to self: use Condition met only for residual activity readings below 80%; a reading exactly at 80% still gets Condition not met.

Below are worked cases with known answers.
O=C1c2ccccc2-c2n[nH]c3cccc1c23    Condition met
Nc1ncnc2c1cnn2-c1ccccc1    Condition met
O=C1Nc2ccccc2/C1=C1\Nc2ccccc2\C1=N/O    Condition met
Cc1ccc(-c2nn(C(C)(C)C)c3ncnc(N)c23)cc1    Condition met
CC(C)[C@H](CO)Nc1nc(Nc2cccc(Cl)c2)c2ncn(C(C)C)c2n1    Condition met

Query: Lab log: compare recorded residual activity with 80%; is it strictly lower for O=C1Cc2c([nH]c3ccc(Br)cc23)-c2ccccc2N1 ?
Reply: Condition not met

Query: Lab log: compare recorded residual activity with 80%; is it strictly lower for COC(=O)[C@@]1(OC)C[C@@H]2O[C@]1(C)n1c3ccccc3c3c4c(c5c6ccccc6n2c5c31)C(=O)N(C)C4 ?
Reply: Condition not met
